All values here come from patent US10221153B2.

# measurement description: Photophysical analysis: absorption, excitation and emission at 10 μM (Example 5)
# Type: physicochemical
# assay context: calculated from excitation wavelength; acetonitrile at 10 μM
measured attribute: Stokes Shift (nm)

# compound, measured
measured = [
    ("O=S(=O)(Oc1ccccc1)c1ccc2c(c1)-c1cc(-c3ccccc3)ccc1S2(=O)=O [Compound 6b]", 152),
]

1 = O=S(=O)([O-])c1ccc2c(c1)-c1cc(-c3cccc4ccccc34)ccc1S2(=O)=O.[Na+] [Compound 17b]
2 = O=S(=O)(Oc1ccccc1)c1ccc2c(c1)-c1cc(-c3cccc4ccccc34)ccc1S2(=O)=O [Compound 7b]
## Input Which shows the larger Stokes Shift value: 1 or 2 ? // caller expects the label of the chosen entry
## Output 2
(2: 218 nm, 1: 147 nm)

I = O=S(=O)([O-])c1ccc2c(c1)-c1cc(-c3ccc(-c4ccccc4)cc3)ccc1S2(=O)=O.[Na+] [Compound 16b]
II = O=S(=O)(Oc1ccccc1)c1ccc2c(c1)-c1cc(-c3ccc(-c4ccccc4)cc3)ccc1S2(=O)=O [Compound 8b]
## Input Hi there, can you help? I need to know whether I or II has lower measured Stokes Shift. // caller expects the label of the chosen entry
## Output I

* * *

# measurement description: Photophysical analysis: absorption, excitation and emission at 10 μM (Example 5)
# Assay type: physicochemical
# assay context: EtOH at 10 μM
measured attribute: λem (nm)

# molecule, λem [nm]
records = [
    ("O=S(=O)([O-])c1ccc2c(c1)-c1cc(-c3ccc(-c4ccccc4)cc3)ccc1S2(=O)=O.[Na+] [Compound 16b]", 422),
    ("O=S(=O)(Oc1ccccc1)c1ccc2c(c1)-c1cc(-c3cccc4ccccc34)ccc1S2(=O)=O", 486),
    ("O=S(=O)([O-])c1ccc2c(c1)-c1cc(-c3ccccc3)ccc1S2(=O)=O.[Na+] [Compound 15b]", 380),
    ("O=S(=O)(Oc1ccccc1)c1ccc2c(c1)-c1cc(-c3ccc(-c4ccccc4)cc3)ccc1S2(=O)=O", 478),
    ("O=S(=O)([O-])c1ccc2c(c1)-c1cc(-c3cccc4ccccc34)ccc1S2(=O)=O.[Na+] [Compound 17b]", 428),
    ("O=S(=O)(Oc1ccccc1)c1ccc2c(c1)-c1cc(-c3ccccc3)ccc1S2(=O)=O", 434),
]

* * *

# measurement description: Emission and excitation scans on spectrofluorometer, approximately 1 mM in acetonitrile (Example 3)
# Type: physicochemical
# Procedure: General Procedure for Emission and Excitation Data Collection: All data were collected on a SHIMAZDU Spectrofluorometer RF-5301PC. Solutions of the respective compounds were prepared in acetonitrile at approximately 1 mM concentration. Solutions (4 mL) were added to a freshly washed quartz cuvette for measurements. The excitation wavelength was varied between 270 nm and 390 nm in 20 nm intervals until the greatest intensity emission was detected. […]
measured attribute: emission wavelength (emitted at) (nm)

# molecule, unit info, measured
data = [
    ("O=S(=O)(Oc1ccccc1)c1ccc2c(c1)-c1cc(-c3ccc(-c4ccccc4)cc3)ccc1S2(=O)=O", "nm", 475),
    ("O=S(=O)(Oc1ccccc1)c1ccc2c(c1)c1cc(-c3ccc(-c4ccccc4)cc3)ccc1[s+]2[O-] (stereo not shown)", "nm", 477),
    ("O=S(=O)(Oc1ccccc1)c1ccc2c(c1)-c1cc(-c3cccc4ccccc34)ccc1S2(=O)=O", "nm", 499),
]

* * *

# measurement description: Photophysical analysis: absorption, excitation and emission at 10 μM (Example 5)
# Type: physicochemical
# assay context: footnotes a,g: acetonitrile at 10 μM / EtOH at 10 μM
measured attribute: λex (nm)

# compound, unit info, measured
records = [
    ("O=S(=O)(Oc1ccccc1)c1ccc2c(c1)-c1cc(-c3ccc(-c4ccccc4)cc3)ccc1S2(=O)=O [Compound 8b]", "nm", 286),
    ("O=S(=O)([O-])c1ccc2c(c1)-c1cc(-c3ccc(-c4ccccc4)cc3)ccc1S2(=O)=O.[Na+] [Compound 16b]", "nm", 284),
    ("O=S(=O)([O-])c1ccc2c(c1)-c1cc(-c3ccccc3)ccc1S2(=O)=O.[Na+] [Compound 15b]", "nm", 274),
    ("O=S(=O)([O-])c1ccc2c(c1)-c1cc(-c3cccc4ccccc34)ccc1S2(=O)=O.[Na+] [Compound 17b]", "nm", 274),
    ("O=S(=O)(Oc1ccccc1)c1ccc2c(c1)-c1cc(-c3cccc4ccccc34)ccc1S2(=O)=O [Compound 7b]", "nm", 274),
    ("O=S(=O)(Oc1ccccc1)c1ccc2c(c1)-c1cc(-c3ccccc3)ccc1S2(=O)=O [Compound 6b]", "nm", 275),
]

* * *

# measurement description: Quantum yield by single-point method
# assay context: single-point method in EtOH
measured attribute: φ (quantum yield)

Example results:
# molecule, measured
records = [
    ("O=S(=O)(Oc1ccccc1)c1ccc2c(c1)-c1cc(-c3ccccc3)ccc1S2(=O)=O [Compound 6b]", 0.05),
    ("O=S(=O)([O-])c1ccc2c(c1)-c1cc(-c3ccccc3)ccc1S2(=O)=O.[Na+] [Compound 15b]", 0.07),
    ("O=S(=O)(Oc1ccccc1)c1ccc2c(c1)-c1cc(-c3ccc(-c4ccccc4)cc3)ccc1S2(=O)=O [Compound 8b]", 0.59),
    ("O=S(=O)([O-])c1ccc2c(c1)-c1cc(-c3ccc(-c4ccccc4)cc3)ccc1S2(=O)=O.[Na+] [Compound 16b]", 0.29),
]

P = O=S(=O)([O-])c1ccc2c(c1)-c1cc(-c3cccc4ccccc34)ccc1S2(=O)=O.[Na+] [Compound 17b]
Q = O=S(=O)(Oc1ccccc1)c1ccc2c(c1)-c1cc(-c3cccc4ccccc34)ccc1S2(=O)=O [Compound 7b]
## Input Which shows the larger φ (quantum yield) value: P or Q ? // caller expects the label of the chosen entry
## Output P

* * *

# measurement description: Photophysical analysis: absorption, excitation and emission at 10 μM (Example 5)
# Format: physicochemical
measured attribute: log εex (molar extinction coefficient at excitation wavelength) (M^−1 cm^−1)

# molecule, unit info, measured
records = [
    ("O=S(=O)([O-])c1ccc2c(c1)-c1cc(-c3cccc4ccccc34)ccc1S2(=O)=O.[Na+] [Compound 17b]", "M^−1 cm^−1", 4.36),
    ("O=S(=O)(Oc1ccccc1)c1ccc2c(c1)-c1cc(-c3ccccc3)ccc1S2(=O)=O", "M^−1 cm^−1", 4.45),
    ("O=S(=O)(Oc1ccccc1)c1ccc2c(c1)-c1cc(-c3cccc4ccccc34)ccc1S2(=O)=O", "M^−1 cm^−1", 4.51),
    ("O=S(=O)([O-])c1ccc2c(c1)-c1cc(-c3ccccc3)ccc1S2(=O)=O.[Na+] [Compound 15b]", "M^−1 cm^−1", 4.4),
    ("O=S(=O)(Oc1ccccc1)c1ccc2c(c1)-c1cc(-c3ccc(-c4ccccc4)cc3)ccc1S2(=O)=O", "M^−1 cm^−1", 4.17),
]

* * *

# measurement description: Photophysical analysis: absorption, excitation and emission at 10 μM (Example 5)
# Type: physicochemical
# assay context: acetonitrile at 10 μM
measured attribute: λem (nm)

# compound, unit info, λem
measured = [
    ("O=S(=O)([O-])c1ccc2c(c1)-c1cc(-c3ccc(-c4ccccc4)cc3)ccc1S2(=O)=O.[Na+] [Compound 16b]", "nm", 412),
    ("O=S(=O)(Oc1ccccc1)c1ccc2c(c1)-c1cc(-c3ccccc3)ccc1S2(=O)=O", "nm", 426),
    ("O=S(=O)(Oc1ccccc1)c1ccc2c(c1)-c1cc(-c3ccc(-c4ccccc4)cc3)ccc1S2(=O)=O", "nm", 485),
    ("O=S(=O)([O-])c1ccc2c(c1)-c1cc(-c3cccc4ccccc34)ccc1S2(=O)=O.[Na+] [Compound 17b]", "nm", 421),
    ("O=S(=O)([O-])c1ccc2c(c1)-c1cc(-c3ccccc3)ccc1S2(=O)=O.[Na+] [Compound 15b]", "nm", 371),
    ("O=S(=O)(Oc1ccccc1)c1ccc2c(c1)-c1cc(-c3cccc4ccccc34)ccc1S2(=O)=O", "nm", 492),
]

* * *

# measurement description: Photophysical analysis: absorption, excitation and emission at 10 μM (Example 5)
# Type: physicochemical
# assay context: EtOH at 10 μM
measured attribute: log εmax (maximum molar extinction coefficient) (M^−1 cm^−1)

# compound, measured
records = [
    ("O=S(=O)(Oc1ccccc1)c1ccc2c(c1)-c1cc(-c3cccc4ccccc34)ccc1S2(=O)=O [Compound 7b]", 4.79),
    ("O=S(=O)(Oc1ccccc1)c1ccc2c(c1)-c1cc(-c3ccccc3)ccc1S2(=O)=O [Compound 6b]", 4.69),
    ("O=S(=O)(Oc1ccccc1)c1ccc2c(c1)-c1cc(-c3ccc(-c4ccccc4)cc3)ccc1S2(=O)=O [Compound 8b]", 4.59),
    ("O=S(=O)([O-])c1ccc2c(c1)-c1cc(-c3ccccc3)ccc1S2(=O)=O.[Na+] [Compound 15b]", 4.67),
    ("O=S(=O)([O-])c1ccc2c(c1)-c1cc(-c3cccc4ccccc34)ccc1S2(=O)=O.[Na+] [Compound 17b]", 4.67),
]
